For each of the molecules below, state its GI50.
test system: BT-549; test: NCI tumour cell line growth inhibition, 48 h
Activity calls are given as the source filed them. No stated cut-off is given here; in the data, active = GI50 up to about 1.1 µM and inactive = higher.

Sure, the documented GI50 for CC1=NOC(C)(O)/C1=N/O (stereo not drawn) is > 100 µM (inactive)

Sure, the documented GI50 for `Oc1c(Cl)c(Cl)c(O)c2c1CCCC2` is 14.8 µM (inactive)

Sure, the documented GI50 for `O=c1cc(N2CCCC2)[nH]c(=O)n1-c1cccc(Cl)c1` is > 100 µM (inactive)

Sure, the documented GI50 for CCOC(=O)C1CC(O)C(=O)N1C (stereo not drawn) is > 100 µM (inactive)

Sure, the documented GI50 for `O=C1Cc2cc3ccccc3nc2-c2ccccc2N1` is 92.9 µM (inactive)

Sure, the documented GI50 for `CC1(C)CCC2=C(O1)c1ccccc1/C(=N/c1ccc([N+](=O)[O-])cc1)C2=O` is 20.1 µM (inactive)

Sure, the documented GI50 for CCC1C2Cc3ccc(O)cc3C1(CC)CCN2C (stereo not drawn) is > 100 µM (inactive)

Sure, the documented GI50 for CC(=O)OC(CCC1(C)OC1COc1ccc(CCNC(=O)C=C(C)C)cc1)C(C)(C)OC(C)=O (stereo not drawn) is 0.377 µM (active)

---

test system: T47D; test: NCI tumour cell line growth inhibition, 48 h
Active and inactive are the calls of the source. Cut-off read from the data, not from the text of the source: active = GI50 up to about 1.1 µM and inactive = higher.
Please answer using one outcome listed in active, inactive

# input # outcome recorded in this test, key = O=C1CSC2(CC(/C=C/c3ccccc3Br)=NN2c2cccc(S(=O)(=O)O)c2)N1c1nc2ccccc2s1 (stereo not drawn)
# output inactive

# input # outcome recorded in this test, key = `Cc1ccc(-n2cc([Si](C)(C)C)nn2)s1`
# output inactive

# input # outcome recorded in this test, key = CC1(C)[C@@H]2C[C@H]1C(Cc1cccc(C[C@H]3c4cc(-c5ccccn5)ncc4[C@H]4C[C@@H]3C4(C)C)c1)c1cc(-c3ccccn3)ncc12 (stereo partly drawn)
# output inactive

# input # outcome recorded in this test, key = c1ccc2c(c1)SCCC2NC1=NCCO1 (stereo not drawn)
# output inactive

# input # outcome recorded in this test, key = N#CC1=C(N)N(/N=C/c2ccccc2)C(c2ccccc2)C1(C#N)C#N (stereo not drawn)
# output inactive

# input # outcome recorded in this test, key = `Cc1c(C(=O)NNc2ccccc2)n2c(S)nnc2c2ccccc12`
# output inactive

# input # outcome recorded in this test, key = CCOC(=O)C(Br)(C(N)=O)C1(O)OC(c2ccccc2)=C(Br)C1=O (stereo not drawn)
# output inactive

# input # outcome recorded in this test, key = `COc1ccc(OC)c2c(/C=C/c3ccc(N(C)C)cc3)ccnc12`
# output inactive

# input # outcome recorded in this test, key = `c1ccc(CNCCCCNCCCNCc2ccccc2)cc1`
# output inactive

# input # outcome recorded in this test, key = `[N-]=[N+]=Nc1ccc(CNc2cc(=O)[nH]c(=O)[nH]2)cc1`
# output inactive

# input # outcome recorded in this test, key = `Oc1ccc(/N=C/c2ccc(/C=N/c3ccc(O)cc3)cc2)cc1`
# output inactive

# input # outcome recorded in this test, key = O=C(O)CCCc1ccc2c(c1)C(C(=O)O)CC2 (stereo not drawn)
# output inactive

# input # outcome recorded in this test, key = `CCN(CC)c1nc(N(C)C)c2ccc(OC)cc2n1`
# output inactive

# input # outcome recorded in this test, key = `CC(=O)OCc1cc2c(s1)C(=O)c1sccc1C2=O`
# output active

# input # outcome recorded in this test, key = `Oc1c(Br)c(-c2ccccc2)nc2ccccc12`
# output inactive

# input # outcome recorded in this test, key = O=C1OC(c2ccccc2)=NC1c1ccccc1 (stereo not drawn)
# output inactive

# input # outcome recorded in this test, key = `Cc1c(-c2ccccc2)[nH]c2ccc(Cl)cc2c1=O`
# output inactive

# input # outcome recorded in this test, key = COc1ccc(C2=CC(c3ccccc3)n3nnnc3N2)cc1 (stereo not drawn)
# output inactive

# input # outcome recorded in this test, key = `N=C(c1ccc(-c2cn3cc(C(=N)N4CCCC4)ccc3n2)cc1)N1CCCC1`
# output inactive

# input # outcome recorded in this test, key = `COc1ccc2c(c1)CCc1c(-c3noc4c3CCc3cc(OC)ccc3-4)noc1-2`
# output inactive

# input # outcome recorded in this test, key = Cc1c(O)c(OC2OC(CO)C(O)C(O)C2O)cc2c1CC[C@@H]1C2(C)C(=O)C[C@]2(C)[C@@H]([C@@](C)(O)C3CCC(C)(C)O3)[C@H](O)C[C@@]12C (stereo partly drawn)
# output inactive

# input # outcome recorded in this test, key = `Cc1cc([C@H](C#N)c2nc3ccccc3[nH]2)nc(Cl)n1`
# output inactive

# input # outcome recorded in this test, key = CCCCC(=C=C(C)CO)C1CCCN1C(=O)OC(C)(C)C (stereo not drawn)
# output inactive

---

test system: EKVX; test: NCI tumour cell line growth inhibition, 48 h
Calls of active or inactive are those of the source. Rule as the data show it: active = GI50 up to about 1.1 µM and inactive = higher.
property.label: GI50

GI50 of COc1ccc(/C(=N\NC(=O)NN)C(c2ccc(OC)cc2)C2(O)C(=O)Nc3c(Cl)cc(Cl)cc32)cc1 (stereo unspecified) , assay on EKVX, is > 100 µM (inactive)

GI50 of `Nc1cc2c(cc1[N+](=O)[O-])[nH]c1c(-c3ccccc3)nccc12` , assay on EKVX, is 21.7 µM (inactive)

GI50 of `O=C1C(Cl)=C(N2CCOCC2)C(=O)c2c(O)ccc(O)c21` , assay on EKVX, is 1.46 µM (inactive)

GI50 of `Cc1nc(Nc2ccc(Cl)cc2)sc1C(=O)NNc1ccc([N+](=O)[O-])cc1[N+](=O)[O-]` , assay on EKVX, is 14.9 µM (inactive)

GI50 of `O=C1C(c2c(O)[nH]c3ccccc23)=Nc2ccc(Br)cc21` , assay on EKVX, is 15.1 µM (inactive)

GI50 of CCOC1=C2C(=O)OC(=O)C2C2CCCCC2=C1 (stereo unspecified) , assay on EKVX, is > 100 µM (inactive)

---

tested on: SK-MEL-5; test: NCI tumour cell line growth inhibition, 48 h
The source made the active and inactive calls. Rule as the data show it: active = GI50 up to about 1.1 µM and inactive = higher.
Please answer using one outcome listed in true = active, false = inactive

# input # outcome recorded in this test, key = `C=CCNc1ccc(C)cc1`
# output false

# input # outcome recorded in this test, key = Cc1cccc2c1Oc1cc(Cl)ccc1C2NC(=O)CCN1CCOCC1 (stereo not given)
# output false

# input # outcome recorded in this test, key = `CC(C)=CCC[C@@H](C)C1=C(O)C(=O)C(C)=C(Nc2ccccc2F)C1=O`
# output false

# input # outcome recorded in this test, key = `Cc1c(C(=O)/C=C/c2ccccc2O)c(=O)n(-c2ccccc2)n1C`
# output false

# input # outcome recorded in this test, key = `O=[N+]([O-])C(Cl)=C/C(=C(\Cl)SCc1ccccc1)[N+](=O)[O-]`
# output false

# input # outcome recorded in this test, key = S=C(Nc1ccccc1)Nc1ccccc1SC(/C=C/NNC1=NN=C(c2ccccc2)C(c2ccccc2)N1)c1ccccc1 (stereo not given)
# output false

# input # outcome recorded in this test, key = Cc1ccc(NC(=O)C2C(=O)N(c3ccc(C)c(C)c3)C(=O)C2N=N)cc1C (stereo not given)
# output false

# input # outcome recorded in this test, key = `O=c1[nH]c2ccccc2c(=O)n1/N=C\c1ccccc1O`
# output false

# input # outcome recorded in this test, key = CCOC(=O)c1cc(C2CCN(Cc3ccccc3)C2=O)c(C(=O)/C=C(/C)N)[nH]1 (stereo not given)
# output false

# input # outcome recorded in this test, key = `Cc1ccc(-n2cc(-c3ccc(Cl)cc3)c3c(N/N=C4\SCC(=O)N4C)ncnc32)cc1`
# output false

# input # outcome recorded in this test, key = `O=C(CSc1nnc[nH]1)C[P+](c1ccccc1)(c1ccccc1)c1ccccc1`
# output false

# input # outcome recorded in this test, key = Cc1c(O)c(OC2OC(CO)C(O)C(O)C2O)cc2c1CC[C@@H]1C2(C)C(=O)C[C@]2(C)[C@@H]([C@@](C)(O)C3CCC(C)(C)O3)[C@H](O)C[C@@]12C (stereo not given in full)
# output false

# input # outcome recorded in this test, key = `COC(=O)c1c(-c2ccc(Cl)cc2)cc2c3ccccc3n(C)c2c1C(=O)OC`
# output false

# input # outcome recorded in this test, key = `COc1ccc(C(=O)c2c(C(C(=O)c3ccc(OC)cc3)C(=O)c3ccc(OC)cc3)n(C(=O)c3ccc(OC)cc3)c3ccccc23)cc1`
# output false

# input # outcome recorded in this test, key = `C=C(C)C(=O)O[C@@H]1C/C(C)=C\[C@H](OC(C)=O)C[C@](C)(O)/C=C2/OC(=O)C(COC(C)=O)=C21`
# output true

# input # outcome recorded in this test, key = `CN(C)CC(CN(C)C)c1ccccn1`
# output false

# input # outcome recorded in this test, key = `O=P1(Oc2ccc(Cl)cc2Cl)Oc2ccc3ccccc3c2-c2c(ccc3ccccc23)O1`
# output false

# input # outcome recorded in this test, key = `Cc1cc(NS(=O)(=O)c2ccc(NC(=O)c3cccn4c(=O)c5ccccc5nc34)cc2)no1`
# output false

# input # outcome recorded in this test, key = COc1ccccc1NC1Oc2cc3c(cc2C(c2cc(OC)c(OC)c(OC)c2)C1C)OCO3 (stereo not given)
# output true

# input # outcome recorded in this test, key = CC12CCC(Br)C(C)(C)C1CC=C1C(=O)OCC1O2 (stereo not given)
# output false

# input # outcome recorded in this test, key = `Cc1cccc2c1C(=O)OC2(c1cccc2ccccc12)c1cccc2ccccc12`
# output false

# input # outcome recorded in this test, key = `CC(=O)OCc1ncccc1C(OC(C)=O)OC(C)=O`
# output false

# input # outcome recorded in this test, key = CC(C)OP(=O)(OC(C)C)C(Nc1cccc(C(F)(F)F)c1)c1ccccc1 (stereo not given)
# output false

# input # outcome recorded in this test, key = `Nc1ccc(Oc2ccc(C3(c4ccc(Oc5ccc(N)cc5)cc4)C4CC5C6CC7CC5C3C(C7)C6C4)cc2)cc1`
# output false

# input # outcome recorded in this test, key = `COC(=O)C1=C(C)N(NC(=O)OC(C)(C)C)C(=O)C1=P(c1ccccc1)(c1ccccc1)c1ccccc1`
# output false

Provenance of the data: ChEMBL document CHEMBL1201862
